# System: HAB1
# assay-name: Yeast two hybrid of pBD-PYR1 site saturation mutants with pACT-HAB1 on 10 μM ABA, β-galactosidase staining
# Format: cell-based, Arabidopsis
# Set-up: key: x: Mutations in PYR1 that disrupt ABA-induced binding to PYR1 to HAB1
# conditions-used: S. cerevisiae Y190, 10 μM ABA; dead = lack of visible staining in comparison to wild type control
property-name: Mutations in PYR1 that disrupt ABA-induced binding to PYR1 to HAB1

R116F: PYR1 mutant (protein, UniProt O49686 1-191, looked up, variant R116F) Abscisic acid receptor PYR1: MPSELTPEERSELKNSIAEFHTYQLDPGSCSSLHAQRIHAPPELVWSIVRRFDKPQTYKHFIKSCSVEQNFEMRVGCTRDVIVISGLPANTSTERLDILDDERRVTGFSIIGGEHFLTNYKSVTTVHRFEKENRIWTVVLESYVVDMPEGNSEDDTRMFADTVVKLNLQKLATVAEAMARNSGDGSGSQVT
x
R116T: PYR1 mutant (protein, UniProt O49686 1-191, looked up, variant R116T) Abscisic acid receptor PYR1: MPSELTPEERSELKNSIAEFHTYQLDPGSCSSLHAQRIHAPPELVWSIVRRFDKPQTYKHFIKSCSVEQNFEMRVGCTRDVIVISGLPANTSTERLDILDDERRVTGFSIIGGEHTLTNYKSVTTVHRFEKENRIWTVVLESYVVDMPEGNSEDDTRMFADTVVKLNLQKLATVAEAMARNSGDGSGSQVT
x
T156H: PYR1 mutant (protein, UniProt O49686 1-191, looked up, variant T156H) Abscisic acid receptor PYR1: MPSELTPEERSELKNSIAEFHTYQLDPGSCSSLHAQRIHAPPELVWSIVRRFDKPQTYKHFIKSCSVEQNFEMRVGCTRDVIVISGLPANTSTERLDILDDERRVTGFSIIGGEHRLTNYKSVTTVHRFEKENRIWTVVLESYVVDMPEGNSEDDHRMFADTVVKLNLQKLATVAEAMARNSGDGSGSQVT
x
